Reference source for all entries: patent US20220119518A1

Target: T1, Antigen CD66c (CEACAM6; Sino Biological, Inc.) (UniProt P40199 35-320)
T1 construct: Bought antigen, coated on the ELISA plate; construct not described; also called CECACAM6 (CD66c) antigen; CD66c antigen
T1 sequence (looked up): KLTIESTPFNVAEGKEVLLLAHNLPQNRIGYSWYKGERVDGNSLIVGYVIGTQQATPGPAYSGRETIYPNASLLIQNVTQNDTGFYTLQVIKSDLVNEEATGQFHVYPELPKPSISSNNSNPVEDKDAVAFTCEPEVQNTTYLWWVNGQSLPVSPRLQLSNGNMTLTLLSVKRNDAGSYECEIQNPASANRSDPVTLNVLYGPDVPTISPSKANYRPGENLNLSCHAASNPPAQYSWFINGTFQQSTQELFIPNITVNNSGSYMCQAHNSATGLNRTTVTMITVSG
Assay: ELISA, CEACAM6 coated 100 ng/well, antibody at 0.17 ng/ml
binders and their reported OD 450 nm
Kindly answer with a numeric value in OD 450 nm, unit omitted.

recombinant humanized anti-CD66c antibody Protein ID 3058 (Vk8 + VH11) (antibody, human IgG1, V domains shown, also called hu 3058; #86) VH: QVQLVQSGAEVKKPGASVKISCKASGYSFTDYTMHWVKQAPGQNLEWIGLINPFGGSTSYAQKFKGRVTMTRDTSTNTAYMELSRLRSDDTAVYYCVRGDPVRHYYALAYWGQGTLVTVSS VL: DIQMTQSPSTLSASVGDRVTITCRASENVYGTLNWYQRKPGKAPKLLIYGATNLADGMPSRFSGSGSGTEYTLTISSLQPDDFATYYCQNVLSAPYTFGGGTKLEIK :: 0.37

For record recombinant humanized anti-CD66c antibody Protein ID 3019 (Vk7 + VH10) (antibody, human IgG1, V domains shown, also called hu 3019; #51) VH: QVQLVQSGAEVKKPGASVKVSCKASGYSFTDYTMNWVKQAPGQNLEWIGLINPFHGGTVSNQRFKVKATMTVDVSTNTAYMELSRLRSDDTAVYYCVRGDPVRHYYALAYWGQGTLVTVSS VL: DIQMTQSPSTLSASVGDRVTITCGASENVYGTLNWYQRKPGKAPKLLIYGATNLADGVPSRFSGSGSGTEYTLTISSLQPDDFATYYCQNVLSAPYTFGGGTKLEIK the listed OD 450 nm is 0.68

For record anti-CD66c chimeric antibody 8F5 (antibody, human IgG1, V domains shown, also called chimeric 8F5; chi 8F5) VH: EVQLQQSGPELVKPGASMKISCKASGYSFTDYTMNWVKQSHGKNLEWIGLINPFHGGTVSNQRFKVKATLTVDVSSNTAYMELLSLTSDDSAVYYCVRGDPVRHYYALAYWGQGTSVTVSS VL: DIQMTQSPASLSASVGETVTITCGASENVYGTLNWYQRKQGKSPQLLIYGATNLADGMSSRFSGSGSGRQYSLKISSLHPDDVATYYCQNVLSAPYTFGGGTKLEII the listed OD 450 nm is 0.4
